- Test system: 242566-281-R-J2-PDC complex spheroid viability;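 further: spheroids exposed to compound for 7 days before readout; 100% = DMSO vehicle control wells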
- Assay procedure: Anticancer human tumor 242566-281-R-J2-PDC patient-derived pancreatic carcinoma cell line growth inhibition [RAS]
- Test context: second compound 10 µM; first compound 0.0316 µM; stronger effect = lower value
# Lookup of reported viability, T/C keyed by entry
Observed property: viability, T/C (%)

| Compound | Observed property | Scale unit | Test value |
| --- | --- | --- | --- |
| CC(C)n1nc(-c2ccc3oc(N)nc3c2)c2c(N)ncnc21 + C#Cc1c(F)ccc2cc(O)cc(-c3ncc4c(N5CC6CCC(C5)N6)nc(OCC56CCCN5CC(F)C6)nc4c3F)c12 | viability, T/C | % | 21.7 |
| C[C@@H](NC(=O)c1ncnc(N)c1Cl)c1ncc(C(=O)Nc2cc(C(F)(F)F)c(Cl)cn2)s1 + C#Cc1c(F)ccc2cc(O)cc(-c3ncc4c(N5CC6CCC(C5)N6)nc(OCC56CCCN5CC(F)C6)nc4c3F)c12 | viability, T/C | % | 63.3 |
| CC(=O)OC12COC1CC(O)C1(C)C(=O)C(O)C3=C(C)C(OC(=O)C(O)C(NC(=O)OC(C)(C)C)c4ccccc4)CC(O)(C(OC(=O)c4ccccc4)C21)C3(C)C (stereo unspecified) + C#Cc1c(F)ccc2cc(O)cc(-c3ncc4c(N5CC6CCC(C5)N6)nc(OCC56CCCN5CC(F)C6)nc4c3F)c12 | viability, T/C | % | 30.2 |
| O=C(c1ccc(F)c(F)c1Nc1ccc(I)cc1F)N1CC(O)([C@@H]2CCCCN2)C1 + C#Cc1c(F)ccc2cc(O)cc(-c3ncc4c(N5CC6CCC(C5)N6)nc(OCC56CCCN5CC(F)C6)nc4c3F)c12 | viability, T/C | % | 34.1 |
| CC1(O)CCCC1n1c(=O)c(C(F)F)cc2cnc(NC3CCN(S(C)(=O)=O)CC3)nc21 (stereo unspecified) + C#Cc1c(F)ccc2cc(O)cc(-c3ncc4c(N5CC6CCC(C5)N6)nc(OCC56CCCN5CC(F)C6)nc4c3F)c12 | viability, T/C | % | 52.3 |
| CC(C)NCC(C(=O)N1CCN(c2ncnc3c2C(C)CC3O)CC1)c1ccc(Cl)cc1 (stereo unspecified) + C#Cc1c(F)ccc2cc(O)cc(-c3ncc4c(N5CC6CCC(C5)N6)nc(OCC56CCCN5CC(F)C6)nc4c3F)c12 | viability, T/C | % | 61.6 |
| CCN1CCN(Cc2ccc(Nc3ncc(F)c(-c4cc(F)c5nc(C)n(C(C)C)c5c4)n3)nc2)CC1 + C#Cc1c(F)ccc2cc(O)cc(-c3ncc4c(N5CC6CCC(C5)N6)nc(OCC56CCCN5CC(F)C6)nc4c3F)c12 | viability, T/C | % | 40.1 |
| Nc1ccn(C2OC(CO)C(O)C2(F)F)c(=O)n1 (stereo unspecified) + C#Cc1c(F)ccc2cc(O)cc(-c3ncc4c(N5CC6CCC(C5)N6)nc(OCC56CCCN5CC(F)C6)nc4c3F)c12 | viability, T/C | % | 48.9 |
| CC(Nc1ccc2c(c1)OCCn1cc(N3C(=O)OCC3C(F)F)nc1-2)C(N)=O (stereo unspecified) + C#Cc1c(F)ccc2cc(O)cc(-c3ncc4c(N5CC6CCC(C5)N6)nc(OCC56CCCN5CC(F)C6)nc4c3F)c12 | viability, T/C | % | 44 |
| CCC(CC)c1cc(NC2CCC(N)C2)n2nccc2n1 (stereo unspecified) + C#Cc1c(F)ccc2cc(O)cc(-c3ncc4c(N5CC6CCC(C5)N6)nc(OCC56CCCN5CC(F)C6)nc4c3F)c12 | viability, T/C | % | 59.8 |
| Cc1nc(N2CCC3(CC2)COC(C)C3N)c(CO)nc1Sc1ccnc(N)c1Cl (stereo unspecified) + C#Cc1c(F)ccc2cc(O)cc(-c3ncc4c(N5CC6CCC(C5)N6)nc(OCC56CCCN5CC(F)C6)nc4c3F)c12 | viability, T/C | % | 50 |

Hello, the source for this data is PubChem BioAssay AID2060910, in case you need it.
